FYI, the data here is from paper PMC7179202.

- TEST_SYSTEM: ALK (Homo sapiens)
- Sequence (Q9UM73 19-1620): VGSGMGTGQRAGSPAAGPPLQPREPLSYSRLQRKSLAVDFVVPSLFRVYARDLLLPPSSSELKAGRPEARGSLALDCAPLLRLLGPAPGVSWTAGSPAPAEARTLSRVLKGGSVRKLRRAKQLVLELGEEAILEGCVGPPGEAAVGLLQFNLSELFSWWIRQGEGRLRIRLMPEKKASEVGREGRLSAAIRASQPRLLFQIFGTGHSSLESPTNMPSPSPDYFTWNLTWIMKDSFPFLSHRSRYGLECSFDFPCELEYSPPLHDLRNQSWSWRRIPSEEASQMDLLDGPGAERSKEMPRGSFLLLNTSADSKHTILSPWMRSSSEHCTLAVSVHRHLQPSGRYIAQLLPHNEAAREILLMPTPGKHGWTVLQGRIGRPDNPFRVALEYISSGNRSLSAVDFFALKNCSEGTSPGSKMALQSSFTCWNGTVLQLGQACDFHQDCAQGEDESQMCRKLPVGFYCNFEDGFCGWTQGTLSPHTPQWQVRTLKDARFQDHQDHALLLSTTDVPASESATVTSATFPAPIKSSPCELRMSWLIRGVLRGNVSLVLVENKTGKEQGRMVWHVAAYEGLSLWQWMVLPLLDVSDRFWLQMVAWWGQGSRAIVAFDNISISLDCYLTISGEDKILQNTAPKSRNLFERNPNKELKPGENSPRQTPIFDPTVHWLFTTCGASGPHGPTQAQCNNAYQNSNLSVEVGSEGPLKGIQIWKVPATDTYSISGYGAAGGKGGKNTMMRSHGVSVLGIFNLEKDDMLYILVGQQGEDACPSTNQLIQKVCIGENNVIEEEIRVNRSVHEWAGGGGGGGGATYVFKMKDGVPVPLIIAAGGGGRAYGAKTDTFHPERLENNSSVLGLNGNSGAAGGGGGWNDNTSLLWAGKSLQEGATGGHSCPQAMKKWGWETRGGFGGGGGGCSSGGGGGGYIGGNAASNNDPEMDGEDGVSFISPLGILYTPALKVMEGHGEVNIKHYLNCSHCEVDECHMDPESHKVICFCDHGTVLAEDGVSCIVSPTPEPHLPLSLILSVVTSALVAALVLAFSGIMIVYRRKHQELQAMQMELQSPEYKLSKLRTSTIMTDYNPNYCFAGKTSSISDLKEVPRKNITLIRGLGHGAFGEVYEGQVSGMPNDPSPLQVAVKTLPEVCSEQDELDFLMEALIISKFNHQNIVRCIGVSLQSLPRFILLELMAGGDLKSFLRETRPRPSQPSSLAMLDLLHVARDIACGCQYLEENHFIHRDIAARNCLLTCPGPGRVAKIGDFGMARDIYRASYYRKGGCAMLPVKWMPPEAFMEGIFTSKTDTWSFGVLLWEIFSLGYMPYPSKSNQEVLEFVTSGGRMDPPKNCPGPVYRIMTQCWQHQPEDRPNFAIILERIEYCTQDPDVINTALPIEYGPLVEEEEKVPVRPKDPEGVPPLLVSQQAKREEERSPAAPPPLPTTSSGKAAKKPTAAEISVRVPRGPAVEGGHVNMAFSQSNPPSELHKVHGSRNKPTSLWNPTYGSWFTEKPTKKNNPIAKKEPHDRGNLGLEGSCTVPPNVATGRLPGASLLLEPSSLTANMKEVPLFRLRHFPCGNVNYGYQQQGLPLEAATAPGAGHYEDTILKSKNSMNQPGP
PROPERTY_NAME: pIC50
Note: pIC50 values are expressed as the negative base-10 logarithm of concentration in M.

C[C@@H](Oc1cc(-c2cnn(C3CCNCC3)c2)cnc1NC(=O)OCc1ccc(B(O)O)cc1)c1c(Cl)ccc(F)c1Cl [Prodrug A]; 6.33

Form field: pIC50 recorded for C[C@@H](Oc1cc(-c2cnn(C3CCNCC3)c2)cnc1NCc1ccc(B(O)O)cc1)c1c(Cl)ccc(F)c1Cl [Prodrug B] with ALK (Homo sapiens) (enter value)
6.48

---

Reported IC50, c-MET (Homo sapiens).
Report the figure in nM without appending any unit label.

C[C@@H](Oc1cc(-c2cnn(C3CCNCC3)c2)cnc1NCc1ccc(B(O)O)cc1)c1c(Cl)ccc(F)c1Cl [Prodrug B]; 684

Now let's try a different one.
Which measured IC50 belongs to C[C@@H](Oc1cc(-c2cnn(C3CCNCC3)c2)cnc1NC(=O)OCc1ccc(B(O)O)cc1)c1c(Cl)ccc(F)c1Cl [Prodrug A] , tested on c-MET (Homo sapiens)?
55
